assay: PAMPA (parallel artificial membrane permeability assay); type: in vitro ADME; conditions: PAMPA; membrane permeation rate (Pe); 50 mM MOPSO buffer pH 6.5 with 5.0% glycocholic acid, 37° C., 18 hours; read-out: iPAMPA Pe
Positions of bridges follow the written chain, without caps; N, C: chain ends. Non-standard residues stand in square brackets, D forms with d. Residues, ends and D or L forms follow the SMILES beside them. *: point of attachment. NMeF = CN[C@@H](Cc1ccccc1)C(=O)O; NMeL = CN[C@@H](CC(C)C)C(=O)O; NMeV = CN[C@H](C(=O)O)C(C)C; NMeA = CN[C@@H](C)C(=O)O; Piperidide = C1CCN(*)CC1; dNMeA = CN[C@H](C)C(=O)O; Sar = CNCC(=O)O
reportedProperty: Papp at 18 hours, 50 µM

[
  {
    "molecule": "CC[C@H](C)[C@@H]1NC(=O)CN(C)C(=O)[C@H](Cc2ccccc2)N(C)C(=O)[C@H](C)N(C)C(=O)[C@H]([C@@H](C)O)NC(=O)[C@H](CC(C)C)N(C)C(=O)[C@@H](C)N(C)C(=O)C[C@@H](C(=O)N(C)[C@@H](Cc2ccccc2)C(=O)N[C@@H](C)C(=O)N2CCCCC2)NC(=O)[C@H](C(C)C)N(C)C(=O)[C@H](CC(C)C)N(C)C1=O [DP-371] ([dNMeA][NMeL]T[NMeA][NMeF][Sar]I[NMeL][NMeV]D[NMeF]A-Piperidide; lactam N-10)",
    "observedValue": "34 ×10⁻⁶ cm/s"
  },
  {
    "molecule": "CC[C@H](C)[C@@H]1NC(=O)[C@H](CC(C)C)N(C)C(=O)CN(C)C(=O)[C@H]([C@@H](C)O)NC(=O)[C@H](C)N(C)C(=O)C[C@@H](C(=O)N[C@@H](C)C(=O)N2CCC[C@H]2C(=O)N[C@@H](C)C(=O)N2CCCCC2)NC(=O)[C@H](CC(C)C)N(C)C(=O)[C@H](Cc2ccccc2)N(C)C(=O)[C@H](CC(C)C)N(C)C1=O [DP-662] ([NMeA]T[Sar][NMeL]I[NMeL][NMeF][NMeL]DAPA-Piperidide; lactam N-9)",
    "observedValue": "18 ×10⁻⁶ cm/s"
  }
]

* * *

Reported values of microsomal CLint at 1 uM for individual entries
test: Metabolic stability in human hepatic microsome; type: in vitro ADME; details: microsomes, pH 7.4; human hepatic microsome, NADPH(+); read-out: CL NADPH(+)
Positions of bridges follow the written chain, without caps; N, C: chain ends. Non-standard residues stand in square brackets, D forms with d. Residues, ends and D or L forms follow the SMILES beside them. *: point of attachment. NMeF = CN[C@@H](Cc1ccccc1)C(=O)O; NMeL = CN[C@@H](CC(C)C)C(=O)O; NMeV = CN[C@H](C(=O)O)C(C)C; NMeA = CN[C@@H](C)C(=O)O; Piperidide = C1CCN(*)CC1; dNMeA = CN[C@H](C)C(=O)O; β3hA = C[C@H](N)CC(=O)O

[
  {
    "molecule": "CC[C@H](C)[C@@H]1NC(=O)[C@H](Cc2ccccc2)N(C)C(=O)[C@H](C(C)C)N(C)C(=O)[C@H](Cc2ccccc2)NC(=O)[C@H](CC(C)C)N(C)C(=O)[C@H](CC(C)C)NC(=O)[C@@H](C(C)C)NC(=O)C[C@@H](C(=O)N2CCCCC2)NC(=O)[C@H]([C@@H](C)O)NC(=O)[C@H](C)NC(=O)[C@H](C)N(C)C1=O [DP-230] ([dV]L[NMeL]F[NMeV][NMeF]I[NMeA]ATD-Piperidide; lactam N-11)",
    "unitsText": "µL/min/mg",
    "microsomal CLint at 1 uM": 31
  },
  {
    "molecule": "CC(C)C[C@H]1C(=O)N[C@@H](C)C(=O)N(C)[C@@H](C)C(=O)N[C@H](C(=O)N(C)[C@@H](Cc2ccccc2)C(=O)N[C@@H](C)C(=O)N2CCCCC2)CC(=O)N(C)[C@@H](C)C(=O)N(C)[C@@H](C(C)C)C(=O)N(C)[C@@H](C)C(=O)N[C@@H]([C@@H](C)O)C(=O)N(C)[C@@H](C)C(=O)N[C@@H](Cc2ccccc2)C(=O)N1C [DP-458] ([NMeA][NMeV][NMeA]T[NMeA]F[NMeL]A[NMeA]D[NMeF]A-Piperidide; lactam N-10)",
    "unitsText": "µL/min/mg",
    "microsomal CLint at 1 uM": 10
  },
  {
    "molecule": "CC(C)C[C@@H]1NC(=O)[C@H](Cc2ccccc2)N(C)C(=O)[C@H](CC(C)C)N(C)C(=O)[C@@H](C)N(C)C(=O)C[C@H](C)NC(=O)[C@H](CC(C)C)N(C)C(=O)[C@H](Cc2ccccc2)N(C)C(=O)[C@H]([C@@H](C)O)NC(=O)[C@H](Cc2ccccc2)N(C)C1=O [DP-793] (cyclo(L[NMeF]T[NMeF][NMeL][β3hA][dNMeA][NMeL][NMeF]))",
    "unitsText": "µL/min/mg",
    "microsomal CLint at 1 uM": 218
  }
]
